# assay-remarks: in vitro
# recorded-conditions: human, hela cells, % viability
Each entry below carries its reported viability at 28.5 h, 10 µM.
measured-quantity: viability at 28.5 h, 10 µM

{"compound": "C[C@H](Nc1nccnc1-c1ccco1)c1ccccc1", "assay-value": "93.1%"}
{"compound": "Cc1nc(-c2ccc(Cl)cc2)sc1C(=O)N1CCCC(C(=O)O)C1 (stereo not drawn)", "assay-value": "91.9%"}
{"compound": "O=C(c1ccncc1)N1C[C@H]2CCc3c(n[nH]c3C(F)(F)F)[C@H]2C1", "assay-value": "87.3%"}
{"compound": "Cc1ccccc1C(=O)Nc1cccc(NC(=S)NC(=O)c2cccs2)c1", "assay-value": "93.1%"}
{"compound": "O=C(NCc1nnc(-c2cccs2)o1)c1cccc(F)c1F", "assay-value": "91.1%"}
{"compound": "O=C(NCC1CCCN1)c1ccccc1Nc1cccc(C(F)(F)F)c1 (stereo not drawn) [CBK115916C]", "assay-value": "107%"}
{"compound": "O=C(NC(=S)Nc1ccc2c(c1)Cc1ccccc1-2)c1cc([N+](=O)[O-])ccc1N1CCOCC1", "assay-value": "104%"}
{"compound": "O=C(O)C[C@@H]1CCN(C(=O)C2CCCCC2)C[C@@H]1CCN1CCCCC1", "assay-value": "90.1%"}
{"compound": "COc1ccccc1CCCNC(=O)c1csc(C(C)=O)c1", "assay-value": "98.8%"}

---

# assay-remarks: in vitro
# recorded-conditions: human, hela cells, % viability
measured-quantity: viability at 28.5 h, 10 µM (%)

{"molecule": "CCc1nc2ccc(C(=O)N(C)CCN(C)C)cn2c1N(C)Cc1nccs1", "assay-value": 96.8}
{"molecule": "O=C1CNC(=O)C2(C/C=C/C[C@H]3COCC[C@H]3N1)CCN(C(=O)c1ccc(=O)[nH]n1)CC2", "assay-value": 110}
{"molecule": "CC(c1ccc(F)c(F)c1)N(C)C(=O)Cn1ncn(C)c1=O (stereo not drawn)", "assay-value": 80.2}
{"molecule": "O=C(Nc1cccnc1N1CCNCC1)c1cc(F)cc(F)c1 [CBK029420T]", "assay-value": 92.3}
{"molecule": "COc1cc(NC(=O)Cn2cnc3c2c(=O)n(C)c(=O)n3C)c(OC)cc1Cl", "assay-value": 99.2}
{"molecule": "N#Cc1ccccc1/C=N/NC(=O)COc1ccc(-c2cc(-c3ccccc3)c3cc(Cl)ccc3n2)cc1", "assay-value": 89.1}
{"molecule": "O=C(O)/C(O)=C/C(=O)c1ccc(F)cc1", "assay-value": 89.4}
{"molecule": "COc1ncc(-c2cccc(N(C)CCN(C)C)n2)c(OC)n1", "assay-value": 99.1}
{"molecule": "Cn1c(=O)[nH]c(=O)c2c1nc(N1CCN(Cc3ccccc3)CC1)n2CCCc1ccccc1", "assay-value": 104}

---

# assay-remarks: in vitro
# recorded-conditions: human, hela cells, % viability
measured-quantity: viability at 28.5 h, 10 µM (%)

{"molecule": "CCCCNc1cc(C)nc2c(-c3ccccc3)cnn12", "units-text": "%", "assay-value": 92.1}
{"molecule": "Cc1ccc2[nH]nc(C(=O)NC(C)c3ccccn3)c2c1 (centres unmarked)", "units-text": "%", "assay-value": 69.9}
{"molecule": "Cc1ccc(NC(=O)NC(=O)C2CCN(CCCc3ccc(F)cc3)CC2)cc1Cl", "units-text": "%", "assay-value": 94.2}
{"molecule": "COc1ccc(C)cc1CC(=O)N(C)CCN1CCCCC1", "units-text": "%", "assay-value": 88.7}
{"molecule": "CC(C)(C)c1cn2c3ccccc3nc2n1CCN1CCOCC1 [CBK278252C]", "units-text": "%", "assay-value": 103}
{"molecule": "c1ccc2c(COc3nccnc3N3CCNCC3)ccnc2c1", "units-text": "%", "assay-value": 90.3}
{"molecule": "COc1ncccc1-c1csc(C2CN3CCCC3CO2)n1 (centres unmarked)", "units-text": "%", "assay-value": 83.5}
{"molecule": "c1coc(CNc2cncc(-c3cccc4ccccc34)n2)c1", "units-text": "%", "assay-value": 115}
{"molecule": "COc1ccc(-c2cnc(NCC3CC3)c(C(=O)NCc3ccccc3SC)c2)cc1", "units-text": "%", "assay-value": 110}
{"molecule": "c1ccc(CCNc2c3c(nc4ccccc24)CCC3)cc1 [CBK263693C]", "units-text": "%", "assay-value": 92.2}
{"molecule": "O=C1CC(c2ccc(C(=O)O)cc2)c2sccc2N1 (centres unmarked)", "units-text": "%", "assay-value": 91.9}
{"molecule": "CC(=O)Nc1cccc(-c2ccc(C(=O)NCc3ccc(F)cc3)c(N3CCN(C(=O)c4ccco4)CC3)n2)c1", "units-text": "%", "assay-value": 85.5}
{"molecule": "O=C(O)CNCCC(=O)c1ccc([N+](=O)[O-])cc1", "units-text": "%", "assay-value": 87}
{"molecule": "O=C(O)C1C2CCC(C2)C1C(=O)NCCCCc1ccccc1 (centres unmarked)", "units-text": "%", "assay-value": 91.1}
{"molecule": "CCN(CC)C(=O)C1CCCN(C(=O)NCc2cc(C)on2)C1 (centres unmarked)", "units-text": "%", "assay-value": 89.5}
{"molecule": "CC(Nc1cc(N2CCN(CCO)CC2)ccc1[N+](=O)[O-])c1ccccc1 (centres unmarked)", "units-text": "%", "assay-value": 106}
{"molecule": "Cc1ccc(N(CC(=O)Nc2cccnc2)S(=O)(=O)c2ccc(F)cc2)cc1", "units-text": "%", "assay-value": 93.8}
{"molecule": "O=C(CN1CCCCC1CN1CCOCC1)NCc1ccccn1 (centres unmarked)", "units-text": "%", "assay-value": 115}
{"molecule": "Cc1cc(CC(=O)N2CCN(CCNC(=O)C3CCCC3)CC2)no1", "units-text": "%", "assay-value": 113}
{"molecule": "CCN(CC(=O)NC(C)(C)C)Cc1nc(-c2cccc(Br)c2)no1", "units-text": "%", "assay-value": 102}
